Tested on: P. falciparum Cam3.II lines
assay_explanation: Isobologram analyses (fixed-ratio drug combinations)
Type: cell-based, Plasmodium falciparum
condition_description: combined with WLL; Rings, 3 hr exposure; Cam3.II K13WT
Procedure: Assays were performed with fixed ratios of drug combinations (1:0, 4:1, 2:1, 1:1, 1:2, 1:4, and 0:1), tested in duplicate. Combinations were prepared from 16×IC50 drug stocks and tested across a range of two-fold dilutions. […] IC50 values were derived for each compound tested alone, and fractional IC50 (FIC50) values were determined for each compound tested in combination (FIC50 = […]) and plotted for each drug combination. […]
reported_metric: Mean of the sums of FIC50 (mean ΣFIC50)

Known Mean of the sums of FIC50 (mean ΣFIC50) results, listed for orientation:
molecule: Clc1ccc2c(N3CCN(CCCN4CCN(c5ccnc6cc(Cl)ccc56)CC4)CC3)ccnc2c1
Mean of the sums of FIC50 (mean ΣFIC50): 1.46
--
molecule: CCCCN(CCCC)CC(O)c1cc(Cl)cc2c1-c1ccc(Cl)cc1/C2=C/c1ccc(Cl)cc1 (centres unmarked)
Mean of the sums of FIC50 (mean ΣFIC50): 1.23
--
molecule: CC1(C)C(N(O)C(=O)Nc2ccc(Cl)cc2)N(c2ccc(Cl)cc2)C(=O)N1CC(=O)N/N=C/C=C/c1ccc([N+](=O)[O-])o1 (centres unmarked)
Mean of the sums of FIC50 (mean ΣFIC50): 1.05
--
molecule: c1cc([C@H]2CC[C@]3(CC2)OO[C@]2(O3)C3CC4CC(C3)CC2C4)ccc1OCCN1CCOCC1
Mean of the sums of FIC50 (mean ΣFIC50): 0.65

Ask | Supply measured Mean of the sums of FIC50 (mean ΣFIC50) of "O=C1C(O)=C([C@H]2CC[C@H](c3ccc(Cl)cc3)CC2)C(=O)c2ccccc21" in your reply.
Reply | 1.64

Recorded values, source paper PMC6553790.
